biological target: plasmepsin II from Plasmodium falciparum (Plm II) (Plasmodium falciparum, UniProt P46925); construct: made in house; host or cells: Escherichia coli; assay: Plasmepsin II inhibition assay, hydrolysis of chromogenic substrate; format: biochemical; conditions: read-out: Ki against Plasmepsin II
Sequence (P46925 125-453): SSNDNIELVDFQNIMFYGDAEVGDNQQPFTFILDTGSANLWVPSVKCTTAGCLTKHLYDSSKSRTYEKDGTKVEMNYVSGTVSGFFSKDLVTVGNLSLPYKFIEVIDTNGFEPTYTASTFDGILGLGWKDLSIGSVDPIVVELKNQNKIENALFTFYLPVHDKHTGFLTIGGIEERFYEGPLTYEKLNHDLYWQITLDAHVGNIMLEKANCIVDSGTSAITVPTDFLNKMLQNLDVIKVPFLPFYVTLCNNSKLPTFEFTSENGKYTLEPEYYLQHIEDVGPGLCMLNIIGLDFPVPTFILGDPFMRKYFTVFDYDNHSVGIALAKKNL
reported_metric: Ki (nM)
Entry rule: numbers only, all in nM.

Entry under test: CSCC(NC(=O)COc1cccc2cnccc12)C(=O)NC(Cc1ccccc1)C(O)C(=O)N1CSC(C)(C)C1C(=O)NC(C)(C)C (stereo not shown) . Its Ki was 30

---

target: human Cathepsin D (Homo sapiens); construct: purchased; assay: Cathepsin D inhibition assay, hydrolysis of chromogenic substrate; type: biochemical; settings: 25° C., 10 mM sodium formate, 2% DMSO, pH 4.0; fit to competitive inhibition; read-out: Ki CatD
Sequence (P07339 65-412): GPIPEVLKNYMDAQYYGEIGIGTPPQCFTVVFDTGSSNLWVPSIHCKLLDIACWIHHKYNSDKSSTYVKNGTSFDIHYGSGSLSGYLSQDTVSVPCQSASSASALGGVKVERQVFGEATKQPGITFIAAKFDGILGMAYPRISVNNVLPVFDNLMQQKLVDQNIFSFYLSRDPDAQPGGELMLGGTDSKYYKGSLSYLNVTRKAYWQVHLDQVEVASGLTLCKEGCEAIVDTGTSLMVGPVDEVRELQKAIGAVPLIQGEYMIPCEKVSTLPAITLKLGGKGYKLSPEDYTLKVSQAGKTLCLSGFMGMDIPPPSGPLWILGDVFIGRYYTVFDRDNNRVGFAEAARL
reported_metric: pKi
By convention, pKi is the negative base-10 log of a molar concentration.

# count of solved cases: 5
{"compound": "CCSC[C@H](NC(=O)COc1cccc2cnccc12)C(=O)N[C@@H](Cc1ccccc1)[C@H](O)C(=O)N1CSC(C)(C)[C@H]1C(=O)NC(C)(C)C [KNI-10057]", "pKi": 5.28}
{"compound": "CC(C)[C@H](NC(=O)c1cc2ccccc2o1)C(=O)N[C@@H](Cc1ccccc1)[C@H](O)C(=O)N1CSC(C)(C)[C@H]1C(=O)NC(C)(C)C [KNI-10009]", "pKi": 6.29}
{"compound": "Cc1ccccc1CNC(=O)[C@H]1N(C(=O)[C@@H](O)[C@H](Cc2ccccc2)NC(=O)COc2c(C)cccc2C)CSC1(C)C [KNI-840]", "pKi": 7.10}
{"compound": "CC(C)[C@H](NC(=O)c1cc(=O)c2ccccc2o1)C(=O)N[C@@H](Cc1ccccc1)[C@H](O)C(=O)N1CSC(C)(C)[C@H]1C(=O)NC(C)(C)C [KNI-10002]", "pKi": 6.95}
{"compound": "CC(C)C(NC(=O)OCc1ccccc1)C(=O)NC(Cc1ccccc1)C(O)C(=O)N1CSC(C)(C)C1C(=O)NC(C)(C)C (stereo not drawn) [KNI-10049]", "pKi": 5.59}

Switching to the query record.
// assay human Cathepsin D (Homo sapiens), entry Cc1cccc(C)c1OCC(=O)N[C@@H](Cc1ccccc1)[C@H](O)C(=O)N1CSC(C)(C)[C@H]1C(=O)N[C@@H]1c2ccccc2C[C@@H]1O [KNI-10007] , pKi value = 6.09

---

target: plasmepsin II from Plasmodium falciparum (Plm II) (Plasmodium falciparum, UniProt P46925); construct: made in house; host or cells: Escherichia coli; assay: Plasmepsin II inhibition assay, hydrolysis of chromogenic substrate; format: biochemical; conditions: Table 2; read-out: Ki Plasmepsin II
# key: entry, value: Ki
Entry rule: numbers only, all in nM.

# count of solved cases: 6
{"compound": "Cc1ccccc1CNC(=O)[C@H]1N(C(=O)[C@@H](O)[C@H](Cc2ccccc2)NC(=O)c2cccc(O)c2C)CSC1(C)C", "target_entity": "plasmepsin II from Plasmodium falciparum (Plm II) (Plasmodium falciparum, UniProt P46925)", "recorded_measurement": 30}
{"compound": "CSC[C@H](NC(=O)COc1cccc2cnccc12)C(=O)N[C@@H](Cc1ccccc1)[C@H](O)C(=O)N1CSC(C)(C)[C@H]1C(=O)N[C@H]1Cc2ccccc2[C@H]1O", "target_entity": "plasmepsin II from Plasmodium falciparum (Plm II) (Plasmodium falciparum, UniProt P46925)", "recorded_measurement": 3}
{"compound": "Cc1cccc(C)c1OCC(=O)N[C@@H](Cc1ccccc1)[C@H](O)C(=O)N1CSC(C)(C)[C@H]1C(=O)N[C@H]1CCc2ccccc21", "target_entity": "plasmepsin II from Plasmodium falciparum (Plm II) (Plasmodium falciparum, UniProt P46925)", "recorded_measurement": 15}
{"compound": "CSCC(NC(=O)COc1cccc2cnccc12)C(=O)NC(Cc1ccccc1)C(O)C(=O)N1CSC(C)(C)C1C(=O)NC(C)(C)C (stereo not drawn)", "target_entity": "plasmepsin II from Plasmodium falciparum (Plm II) (Plasmodium falciparum, UniProt P46925)", "recorded_measurement": 36}
{"compound": "Cc1ccccc1CNC(=O)[C@H]1N(C(=O)[C@@H](O)[C@H](Cc2ccccc2)NC(=O)COc2c(C)cccc2C)CSC1(C)C", "target_entity": "plasmepsin II from Plasmodium falciparum (Plm II) (Plasmodium falciparum, UniProt P46925)", "recorded_measurement": 20}
{"compound": "Cc1cccc(C)c1OCC(=O)N[C@@H](Cc1ccccc1)[C@H](O)C(=O)N1CSC(C)(C)[C@H]1C(=O)N[C@H]1c2ccccc2C[C@H]1O", "target_entity": "plasmepsin II from Plasmodium falciparum (Plm II) (Plasmodium falciparum, UniProt P46925)", "recorded_measurement": 0.5}

Entry under test: `Cc1cccc(CNC(=O)[C@H]2N(C(=O)[C@@H](O)[C@H](Cc3ccccc3)NC(=O)COc3c(C)cccc3C)CSC2(C)C)c1` . Its Ki was 41

Entry under test: `Cc1cccc(C)c1OCC(=O)N[C@@H](Cc1ccccc1)[C@H](O)C(=O)N1CSC(C)(C)[C@H]1C(=O)N[C@H](C)c1ccccc1` . Its Ki was 11

Entry under test: `Cc1cccc(C)c1OCC(=O)N[C@@H](Cc1ccccc1)[C@H](O)C(=O)N1CSC(C)(C)[C@H]1C(=O)N[C@H](CO)c1ccccc1` . Its Ki was 22

---

molecular target: plasmepsin II from Plasmodium falciparum (Plm II) (Plasmodium falciparum); construct: made in house; host or cells: Escherichia coli; assay: Plasmepsin II inhibition assay, hydrolysis of chromogenic substrate; assay type: biochemical; conditions: ratio of the Ki for Cathepsin D to the Ki for Plasmepsin II
# key: entry, value: Discrimination Factor: Fold Selectivity for Plasmepsin II over Cathepsin D

# count of solved cases: 5
{"molecule": "Cc1cccc(C)c1OCC(=O)N[C@@H](Cc1ccccc1)[C@H](O)C(=O)N1CSC(C)(C)[C@H]1C(=O)N[C@H](C)c1ccccc1", "recorded_measurement": "~10"}
{"molecule": "CSC[C@H](NC(=O)COc1cccc2cnccc12)C(=O)N[C@@H](Cc1ccccc1)[C@H](O)C(=O)N1CSC(C)(C)[C@H]1C(=O)N[C@H]1Cc2ccccc2[C@H]1O", "recorded_measurement": "~13"}
{"molecule": "Cc1cccc(C)c1OCC(=O)N[C@@H](Cc1ccccc1)[C@H](O)C(=O)N1CSC(C)(C)[C@H]1C(=O)N[C@H](CO)c1ccccc1", "recorded_measurement": 2.4}
{"molecule": "CSCC(NC(=O)COc1cccc2cnccc12)C(=O)NC(Cc1ccccc1)C(O)C(=O)N1CSC(C)(C)C1C(=O)NC(C)(C)C (stereo not shown)", "recorded_measurement": "~49"}
{"molecule": "Cc1ccccc1CNC(=O)[C@H]1N(C(=O)[C@@H](O)[C@H](Cc2ccccc2)NC(=O)COc2c(C)cccc2C)CSC1(C)C", "recorded_measurement": 4}

Entry under test: `Cc1ccccc1CNC(=O)[C@H]1N(C(=O)[C@@H](O)[C@H](Cc2ccccc2)NC(=O)c2cccc(O)c2C)CSC1(C)C` . Its Discrimination Factor: Fold Selectivity for Plasmepsin II over Cathepsin D was ~7

Entry under test: `Cc1cccc(C)c1OCC(=O)N[C@@H](Cc1ccccc1)[C@H](O)C(=O)N1CSC(C)(C)[C@H]1C(=O)N[C@H]1c2ccccc2C[C@H]1O` . Its Discrimination Factor: Fold Selectivity for Plasmepsin II over Cathepsin D was 4

---

target: human Cathepsin D (Homo sapiens); construct: purchased; assay: Cathepsin D inhibition assay, hydrolysis of chromogenic substrate; format: biochemical; conditions: 25° C., 10 mM sodium formate, 2% DMSO, pH 4.0; fit to competitive inhibition; read-out: Ki CatD
reported_metric: pKi
By convention, pKi is the negative base-10 log of a molar concentration.

{"molecule": "CC(C)(C)NC(=O)[C@H]1N(C(=O)[C@@H](O)[C@H](Cc2ccccc2)NC(=O)COc2cccc(Cl)c2)CSC1(C)C [KNI-10045]", "reported_metric": "pKi", "recorded_measurement": 5.21}
{"molecule": "CC(C)(C)NC(=O)[C@H]1N(C(=O)[C@@H](O)[C@H](Cc2ccccc2)NC(=O)[C@H](Cc2ccccc2)NC(=O)COc2cccc3cnccc23)CSC1(C)C [KNI-10051]", "reported_metric": "pKi", "recorded_measurement": 5.19}
{"molecule": "Cc1cccc(C)c1OCC(=O)N[C@@H](Cc1ccccc1)[C@H](O)C(=O)N1CSC(C)(C)[C@H]1C(=O)N[C@H]1CCc2ccccc21 [KNI-10026]", "reported_metric": "pKi", "recorded_measurement": 6.98}
{"molecule": "CC(C)[C@H](NC(=O)Cc1cccc2ccccc12)C(=O)N[C@@H](Cc1ccccc1)[C@H](O)C(=O)N1CSC(C)(C)[C@H]1C(=O)NC(C)(C)C [KNI-10028]", "reported_metric": "pKi", "recorded_measurement": 6.16}
{"molecule": "CSC[C@H](NC(=O)COc1cccc2cnccc12)C(=O)N[C@@H](Cc1ccccc1)[C@@H](O)C(=O)N1CSC[C@H]1C(=O)NC(C)(C)C [KNI-529]", "reported_metric": "pKi", "recorded_measurement": 5.05}

Switching to the query record.
Entry under test: CC(C)(C)NC(=O)[C@@H]1CSCN1C(=O)[C@@H](O)[C@H](Cc1ccccc1)NC(=O)CC(C)(C)C(=O)O [KNI-391] . Its pKi was 5.87
